Values were extracted from PubChem BioAssay (NCATS).

Tested on: NIH3T3
Assay: Cytotoxic Profiling of Annotated Libraries Using Quantitative High-Throughput Screening (AID 1296008); also: % is scaled to controls: 0 for no effect and ±100 for the full control effect; nearly all actives have a fitted effect of over 60% in size
Conditions: Five cell lines viability, CellTiter-Glo ATP luminescence, 48-72 h; hits give low values
Results filed as inconclusive are left out. Where a SMILES comes first, the peptide text is derived from it. [ ]: non-standard residue; d: D form. ξ: configuration not given here. ξPhe(βξ-Me) = CC(c1ccccc1)C(N)C(=O)O; GABA = NCCCC(=O)O
Each item that follows carries a reported max response.
Respond with the bare value in %.

Some compounds with known max response results, for comparison:
compound	max response (%)
C[C@@H]1O[C@@H](O[C@H]2[C@H](O[C@H]3[C@H](O[C@H]4CC[C@@]5(C)C(CC[C@]6(C)C5CC=C5[C@@H]7CC(C)(C(=O)O)C[C@@H](O)[C@]7(C)CC[C@]56C)[C@@]4(C)CO)O[C@H](C(=O)O)[C@@H](O)[C@@H]3O)O[C@H](CO)[C@H](O)[C@@H]2O)[C@H](O)[C@H](O)[C@H]1O (some centres not stated)	-3.63
CCC[C@@H]1C[C@@H](C(=O)N[C@H](C(C)Cl)[C@H]2O[C@H](SC)[C@H](O)[C@@H](O)[C@H]2O)N(C)C1 (some centres not stated)	3.25
OCC1=CC[C@@H]2C=CO[C@@H](O[C@@H]3O[C@H](CO)[C@@H](O)[C@H](O)[C@H]3O)[C@H]12	-0.173
Oc1ccc([C@H]2COc3cc(O)ccc3C2)cc1	3.41

Lookup: Find max response for CC1(C)C(=O)N2c3ccccc3[C@]3(CC(n4cnc5ccccc5c4=O)C(=O)O3)[C@H]2N1O (some centres not stated) on NIH3T3 and write it down.
Found: 1.65

Lookup: Return reported max response for target or system NIH3T3, item CC(C)CC1NC(=O)C(C(C)c2ccccc2)NC(=O)C(C(C)C)NC(=O)C(C)NC(=O)CCCNC(=O)C(Cc2c[nH]c3ccccc23)NC(=O)C(C)NC1=O (stereo not drawn) (cyclo([GABA]AV[ξPhe(βξ-Me)]LAW); configuration not given here) .
Found: 3.96

Lookup: Give max response; test system NIH3T3; compound CC1=CC(=O)OC(C)(CC(C)(O)C(=O)O)C1 (configuration not stated)
Found: 0.862
